System: UO-31 renal
assay.remarks: NCI tumour cell line growth inhibition, 48 h
measurement.label: TGI

TGI for CCOC(=O)c1nc2ccc(C(F)(F)F)cc2nc1Nc1cc(OC)c(OC)c(OC)c1 is > 100 µM

TGI for COc1ccc(/C(=N\NC(=O)NN)C(c2ccc(OC)cc2)C2(O)C(=O)Nc3c(Cl)cc(Cl)cc32)cc1 (stereo not drawn) is > 100 µM

TGI for CC(=O)Oc1cc(S(=O)(=O)Nc2n[nH]c(Nc3ccc(C)cc3)n2)c(S)cc1Cl is > 100 µM

TGI for COc1cc2c3cc1Oc1c(O)c(OC)cc4c1C(Cc1ccc(O)c(c1)Oc1ccc(cc1)CC3N(C)CC2)N(C)CC4 (stereo not drawn) is 29.3 µM

TGI for COC(=O)N1CC(=O)C(C(=O)NC23CC4CC(CC(C4)C2)C3)C1 (stereo not drawn) is > 100 µM

TGI for C[C@@]1(C(=O)O)CCC[C@]2(C)C1CC[C@@]13C[C@@](O)(CC[C@]12O)[C@@]1(CO1)C3 (stereo partly drawn) is > 100 µM

TGI for CCCCCCCCCCCCCCCC1=NCCN1 is 3.47 µM

TGI for CCN1CCC(Nc2ccnc3cc(Cl)ccc23)CC1 is 29 µM

TGI for O=C(O)[C@H](Cc1c[nH]c2ccccc12)N1C(=O)c2ccccc2C1=O is > 100 µM

TGI for CCOC(=O)C(NC(=O)c1ccccc1)(Nc1ccc(S(=O)(=O)Nc2ncccn2)cc1)C(F)(F)F (stereo not drawn) is > 100 µM

TGI for C1CSCCSCCCSC2CCCCC2SC1 (stereo not drawn) is > 100 µM

TGI for NNC(=O)CC(=O)Nc1cccc(Cl)c1 is > 100 µM

TGI for O=C1C=CC2OC(c3ccccc3)C(O)C2O1 (stereo not drawn) is 21.1 µM

TGI for COc1cc(CSc2ccc(O)cc2)cc(OC)c1OC is 52 µM

TGI for NC(N)=NS(=O)(=O)c1ccc(N/N=C2/CCOC2=O)cc1 is > 100 µM

TGI for CCOC(=O)c1cc(-n2nnc3ccccc32)cn1C is > 10 µM

TGI for CN(CC(=O)O)c1ncc2c(n1)C=CCC2 is > 100 µM

TGI for O=C1/C(=C/c2ccccc2)CN(C(=O)C(Cl)Cl)C/C1=C\c1ccccc1 is 2.62 µM

TGI for BrC(Br)=C1C(=C(Br)Br)C(Br)C1Br (stereo not drawn) is 2.24 µM

TGI for CC(=O)Nc1cc2cc(N)ccc2oc1=O is > 100 µM

TGI for COc1ccccc1Cc1ccc(C2C=CC3(CC(=O)C=C3C)C(=O)C2)o1 (stereo not drawn) is > 100 µM

TGI for N#Cc1c(NCc2ccccc2)nc(NCc2ccccc2)c(C#N)c1-c1ccc(O)cc1 is 68.5 µM

TGI for CCNC(=O)c1cc(Cl)ccc1NC(=O)C12CC3CC(CC(C3)C1)C2 is 56.4 µM

TGI for COc1cc2c(cc1OC)C1C(=O)c3c(O)cc4c(c3OC1CO2)C=CC(C)(C)O4 (stereo not drawn) is 59.2 µM

TGI for CCOC(=O)C(=O)Nc1nc2c(OCC)cccc2s1 is > 100 µM

TGI for S=C(NCCc1ccccn1)N/N=C/c1ccccn1 is > 49.1 µM

TGI for O=C(CN(C(=O)OC12CC3CC(CC(C3)C1)C2)C(=O)OC12CC3CC(CC(C3)C1)C2)Oc1ccc([N+](=O)[O-])cc1 is > 100 µM

TGI for Cc1cccc(-n2c(N)c(-c3nc4ccccc4[nH]3)sc2=S)c1 is 87.8 µM
